Data origin: patent US20260098080A1

measured on: T1, human MASP-2cf CCP1-CCP2-SP (human, UniProt O00187 298-686, limits assumed)
T1 construct: domain: CCP1-CCP2-SP; also called human MASP-2 catalytic fragment
measurement description: SPR, target immobilised
Where no end group is shown, it is not given here.
binders and their reported Relative affinity
Give your result in fold vs EVO2 as a bare value.

1. EVO215 (designed binder, not fully specified; ends and bridges not checked, Modified TFPI-D2 Kunitz domain; made as m1) KPDFCFLENDPGWCRAAKRRYFYNNQTKQCERFGYGGCLGNMNNFVTLEECKNICEDG: 5.9

# input for lookup
Exercise: Note down Relative affinity recorded for EVO212 (designed binder, not fully specified; ends and bridges not checked, Modified TFPI-D2 Kunitz domain; made as m1) KPDFCFLENDPGLCRALKRRYFYNNQTKQCERFGYGGCLGNMNNFVTLEECKNICEDG
Key: 32.7
